# System: goosegrass (Eleusine indica)
# procedure.text: Test B pre-/postemergence plant response
# Assay type: in vivo
# details: Postemergence, 125 g ai/ha; visual rating after 13 to 15 days, scale 0 (no effect) to 100 (complete control)
Use 80 as the dividing line for Plant response rating, Goosegrass, with the line itself on the Met side and lower values as Not met.

[[record]]
smiles_str = "O=C1CCCC(O)=C1C(=O)c1cnc(-c2ccccc2)n(-c2ccc(F)cc2)c1=O"
target_of_assay = "goosegrass (Eleusine indica)"
group = "Met"

[[record]]
smiles_str = "Cc1cccc(-n2c(-c3ccccc3)ncc(C(=O)C3=C(O)CCCC3=O)c2=O)c1C"
target_of_assay = "goosegrass (Eleusine indica)"
group = "Met"

[[record]]
smiles_str = "CCCCc1ncc(C(=O)C2=C(O)CCCC2=O)c(=O)n1-c1ccccc1C"
target_of_assay = "goosegrass (Eleusine indica)"
group = "Not met"

[[record]]
smiles_str = "Cc1cc(F)ccc1-n1c(-c2ccccc2)ncc(C(=O)C2=C(O)CCCC2=O)c1=O"
target_of_assay = "goosegrass (Eleusine indica)"
group = "Met"

[[record]]
smiles_str = "O=C1CCCC(O)=C1C(=O)c1cnc(-c2cccs2)n(-c2ccccc2)c1=O"
target_of_assay = "goosegrass (Eleusine indica)"
group = "Not met"


---

# Tested on: green foxtail (Setaria viridis)
# procedure.text: Test B pre-/postemergence plant response
# Type: in vivo
# details: Postemergence, 31 g ai/ha; 0 to 100 scale (0 no effect, 100 complete control)
# Excerpt: […] Treated plants and controls were maintained in a greenhouse for 13 to 15 days, after which time all treated plants were visually evaluated and compared to controls. […]
# label = 1 if Plant response rating, Foxtail, Green < 70 else 0

[[record]]
compound = "O=C1CCCC(O)=C1C(=O)c1cnc(C2CC2)n(C2CCCCC2)c1=O [Compound 160]"
group = 1

[[record]]
compound = "Cc1ccc(-n2c(-c3cc(F)cc(F)c3)ncc(C(=O)C3=C(O)CCCC3=O)c2=O)cc1 [Compound 162]"
group = 0

[[record]]
compound = "CCn1c(-c2cc(F)cc(F)c2)ncc(C(=O)C2=C(O)CCCC2=O)c1=O [Compound 122]"
group = 0

[[record]]
compound = "COCCCn1c(-c2cccc(F)c2)ncc(C(=O)C2=C(O)CCCC2=O)c1=O [Compound 126]"
group = 1


---

# Test system: ragweed (common ragweed, Ambrosia elatior)
# procedure.text: Test D pre-/postemergence plant response
# Format: in vivo
# details: Postemergence; 62 g ai/ha; scale 0 to 100 (0 no effect, 100 complete control)
# Description: […] Treated plants and controls were maintained in a greenhouse for 14 to 21 days, after which time all species were visually evaluated and compared to controls. […]
The entries below come with measured Plant response rating, Ragweed values attached.
attribute.measured: Plant response rating, Ragweed

[[record]]
compound = "CCCCn1c(-c2ccccc2)ncc(C(=O)C2=C(O)C3CCC(C3)C2=O)c1=O (centres unmarked)"
recorded_result = 75

[[record]]
compound = "Cc1ccc(Cl)cc1-n1c(-c2ccccc2)ncc(C(=O)C2=C(O)CCCC2=O)c1=O"
recorded_result = 95

[[record]]
compound = "CCCn1c(-c2ccccc2)ncc(C(=O)C2=C(O)C3CCC(C3)C2=O)c1=O (centres unmarked)"
recorded_result = 90

[[record]]
compound = "Cc1ccc(F)c(-n2c(-c3ccccc3)ncc(C(=O)C3=C(O)CCCC3=O)c2=O)c1"
recorded_result = 80

[[record]]
compound = "O=C1CCCC(O)=C1C(=O)c1cnc(C2CC2)n(-c2ccccc2)c1=O"
recorded_result = 95


---

Below, each entry is listed alongside its reported Plant response rating, Cocklebur.
# Tested on: cocklebur (Xanthium strumarium)
# procedure.text: Test B pre-/postemergence plant response
# Assay type: in vivo
# details: Preemergence, 31 g ai/ha; scale 0 to 100 (0 no effect, 100 complete control)
attribute.measured: Plant response rating, Cocklebur

[[record]]
smiles_str = "CC(C)Cc1ncc(C(=O)C2=C(O)CCCC2=O)c(=O)n1-c1ccccc1"
recorded_result = 0

[[record]]
smiles_str = "O=C1CCCC(O)=C1C(=O)c1cnc(-c2ccccc2)n(-c2ccc(F)cc2)c1=O"
recorded_result = 10

[[record]]
smiles_str = "Cc1cccc(-n2c(-c3ccccc3)ncc(C(=O)C3=C(O)CCCC3=O)c2=O)c1C"
recorded_result = 0

[[record]]
smiles_str = "O=C1CCCC(O)=C1C(=O)c1cnc(-c2cccc(Cl)c2)n(-c2ccccc2)c1=O"
recorded_result = 0

[[record]]
smiles_str = "Cc1ccc(C)c(-n2c(-c3ccccc3)ncc(C(=O)C3=C(O)CCCC3=O)c2=O)c1"
recorded_result = 5

[[record]]
smiles_str = "CCc1cccc(-n2c(-c3ccccc3)ncc(C(=O)C3=C(O)CCCC3=O)c2=O)c1"
recorded_result = 0


---

Listed below: Plant response rating, Foxtail, Giant values for each entry.
# System: giant foxtail (Setaria faberii)
# procedure.text: Test B pre-/postemergence plant response
# Type: in vivo
# details: Postemergence, 62 g ai/ha; scale 0 (no effect) to 100 (complete control); 13 to 15 days
attribute.measured: Plant response rating, Foxtail, Giant

[[record]]
smiles_str = "Cc1ccc(C)c(-n2c(-c3ccccc3)ncc(C(=O)C3=C(O)CCCC3=O)c2=O)c1"
recorded_result = 90

[[record]]
smiles_str = "O=C1CCCC(O)=C1C(=O)c1cnc(-c2ccccc2)n(-c2ccc(F)cc2)c1=O"
recorded_result = 85

[[record]]
smiles_str = "Cc1cccc(-n2c(-c3ccccc3)ncc(C(=O)C3=C(O)CCCC3=O)c2=O)c1F"
recorded_result = 85

[[record]]
smiles_str = "Cc1cc(F)ccc1-n1c(-c2ccccc2)ncc(C(=O)C2=C(O)CCCC2=O)c1=O"
recorded_result = 85

[[record]]
smiles_str = "CCn1c(-c2ccccc2)ncc(C(=O)C2=C(O)CCCC2=O)c1=O"
recorded_result = 60

[[record]]
smiles_str = "Cc1cccc(-n2c(-c3cccc(Cl)c3)ncc(C(=O)C3=C(O)CCCC3=O)c2=O)c1"
recorded_result = 90


---

# Tested on: morningglory (Ipomoea coccinea)
# procedure.text: Test B pre-/postemergence plant response
# Assay type: in vivo
# details: Preemergence, 31 g ai/ha; scale 0 to 100 (0 no effect, 100 complete control)
attribute.measured: Plant response rating, Morningglory

[[record]]
compound = "O=C1CCCC(O)=C1C(=O)c1cnc(-c2cccc(Cl)c2)n(-c2ccccc2)c1=O [Compound 34]"
recorded_result = 0

[[record]]
compound = "CCCCc1ncc(C(=O)C2=C(O)CCCC2=O)c(=O)n1-c1ccccc1C [Compound 62]"
recorded_result = 0

[[record]]
compound = "Cc1cccc(-n2c(-c3ccccc3)ncc(C(=O)C3=C(O)CCCC3=O)c2=O)c1F [Compound 58]"
recorded_result = 0


---

# Tested on: pigweed (Amaranthus retroflexus)
# procedure.text: Test B pre-/postemergence plant response
# Assay type: in vivo
# details: 62 g ai/ha, postemergence; 0 is no effect, 100 is complete control; 13 to 15 days
attribute.measured: Pigweed plant response rating (0 to 100 scale)

[[record]]
molecule = "O=C1CCCC(O)=C1C(=O)c1cnc(-c2ccccc2)n(C2CC2)c1=O"
recorded_result = 98

[[record]]
molecule = "O=C1CCCC(O)=C1C(=O)c1cnc(-c2cccs2)n(CC2CCCO2)c1=O (centres unmarked)"
recorded_result = 100

[[record]]
molecule = "COCCn1c(-c2ccsc2)ncc(C(=O)C2=C(O)CCCC2=O)c1=O"
recorded_result = 100

[[record]]
molecule = "CCCc1ncc(C(=O)C2=C(O)CCCC2=O)c(=O)n1CCC"
recorded_result = 100

[[record]]
molecule = "CCCn1c(-c2cccc(OC)c2)ncc(C(=O)C2=C(O)CCCC2=O)c1=O"
recorded_result = 98


---

# Tested on: giant foxtail (Setaria faberii)
# procedure.text: Test B pre-/postemergence plant response
# Type: in vivo
# details: Postemergence, 125 g ai/ha; scale 0 to 100 (0 no effect, 100 complete control)
attribute.measured: Plant response rating, Foxtail, Giant

[[record]]
compound = "CCCc1ncc(C(=O)C2=C(O)CCCC2=O)c(=O)n1-c1ccccc1 [Compound 217]"
target_of_assay = "giant foxtail (Setaria faberii)"
attribute_measured = "Plant response rating, Foxtail, Giant"
recorded_result = 85

[[record]]
compound = "Cc1ccc(-n2c(-c3cc(F)cc(F)c3)ncc(C(=O)C3=C(O)CCCC3=O)c2=O)cc1 [Compound 162]"
target_of_assay = "giant foxtail (Setaria faberii)"
attribute_measured = "Plant response rating, Foxtail, Giant"
recorded_result = 98

[[record]]
compound = "COCCn1c(-c2cccs2)ncc(C(=O)C2=C(O)CCCC2=O)c1=O [Compound 108]"
target_of_assay = "giant foxtail (Setaria faberii)"
attribute_measured = "Plant response rating, Foxtail, Giant"
recorded_result = 75

[[record]]
compound = "COCCn1c(-c2ccco2)ncc(C(=O)C2=C(O)CCCC2=O)c1=O [Compound 111]"
target_of_assay = "giant foxtail (Setaria faberii)"
attribute_measured = "Plant response rating, Foxtail, Giant"
recorded_result = 65

